As shown below, each of these molecules has a reported Semi-quantitative analysis of proteins binding to different plaque particles: Synuclein value.
SYSTEM_TESTED: T1, alpha-synuclein plaque particles (Homo sapiens, UniProt P37840)
T1 construct: 140 amino acids polypeptide
PROTOCOL_SUMMARY: Mass spectroscopy proteomics, semi-quantitative binding affinity of serum proteins (plaqueproteome, Table 2)
EXPERIMENTAL_SETUP: higher number = stronger affinity

MOLECULE	OBSERVED_MEASUREMENT
Isoform 2 of Arginase-1 (protein) MSAKSRTIGIIGAPFSKGQPRGGVEEGPTVLRKAGLLEKLKEQVTQNFLILECDVKDYGDLPFADIPNDSPFQIVKNPRSVGKASEQLAGKVAEVKKNGRISLVLGGDHSLAIGSISGHARVHPDLGVIWVDAHTDINTPLTTTSGNLHGQPVSFLLKELKGKIPDVPGFSWVTPCISAKDIVYIGLRDVDPGEHYILKTLGIKYFSMTEVDRLGIGKVMEETLSYLLGRKKRPIHLSFDVDGLDPSFTPATGTPVVGGLTYREGLYITEEIYKTGLLSGLDIMEVNPSLGKTPEEVTRTVNTAVAITLACFGLAREGNHKPIDYLNPPK	0

In: Which measured Semi-quantitative analysis of proteins binding to different plaque particles: Synuclein value corresponds to Apolipoprotein F (protein) SLPTEDCENEKEQAVHNVVQLLPGVGTFYNLGTALYYATQNCLGKARERGRDGAIDLGYDLLMTMAGMSGGPMGLAISAALKPALRSGVQQLIQYYQDQKDANISQPETTKEGLRAISDVSDLEETTTLASFISEVVSSAPYWGWAIIKSYDLDPGAGSLEI ?
Out: 2
